- target-desc: Cathepsin B (Homo sapiens) (UniProt P07858)
- assay-explanation: Inhibition of cathepsin B (unknown origin) assessed as Cbz-Phe-Arg-AMC substrate hydrolysis
Calls of active or inactive are those of the source. The calls are words filed in the database; no cut-off is given here.
assay-metric: inhibition

{"chem-smiles": "O=C(Cn1ccccc1=O)NC12CC3CC(CC(C3)C1)C2", "endpoint-value": "inactive"}
{"chem-smiles": "CC(C)CCNC(=O)Cn1ccc(Nc2ccccc2)cc1=O", "endpoint-value": "inactive"}
{"chem-smiles": "COc1ccc(NC(=O)Cn2ccccc2=O)cc1", "endpoint-value": "inactive"}
{"chem-smiles": "CCN(CC)c1ccn(CC(=O)NCCC(C)C)c(=O)c1", "endpoint-value": "inactive"}
{"chem-smiles": "CC(C)CCNC(=O)Cn1ccc(N2CCCCC2)cc1=O", "endpoint-value": "inactive"}
{"chem-smiles": "O=C(Cn1ccccc1=O)Nc1ccccc1", "endpoint-value": "inactive"}
{"chem-smiles": "O=C(Cn1ccc(Nc2ccccc2)cc1=O)NCc1ccccc1", "endpoint-value": "inactive"}
{"chem-smiles": "O=C(Cn1ccc(Nc2ccccc2)cc1=O)NC12CC3CC(CC(C3)C1)C2", "endpoint-value": "inactive"}
{"chem-smiles": "O=C(Cn1ccc(Nc2ccccc2)cc1=O)Nc1ccccc1C(=O)c1ccccc1", "endpoint-value": "inactive"}
{"chem-smiles": "O=C(Cn1ccccc1=O)Nc1ccccc1C(=O)c1ccccc1", "endpoint-value": "inactive"}
{"chem-smiles": "CC(C)CCNC(=O)Cn1ccc2ncccc2c1=O", "endpoint-value": "inactive"}
{"chem-smiles": "CC(C)C[C@H](NC(=O)[C@H](Cc1ccccc1)NC(=O)c1cnccn1)B(O)O", "endpoint-value": "inactive"}
{"chem-smiles": "CC(C)CCNC(=O)Cn1ccc2c(c1=O)CCCN2", "endpoint-value": "inactive"}
{"chem-smiles": "CC(C)CCNC(=O)Cn1ccc2c(c1=O)CCCN2C", "endpoint-value": "inactive"}
{"chem-smiles": "CC(C)CCNC(=O)Cn1cc(Br)c2ncccc2c1=O", "endpoint-value": "inactive"}
{"chem-smiles": "O=C(Cn1ccc(Nc2ccccc2)cc1=O)Nc1ccccc1", "endpoint-value": "inactive"}
{"chem-smiles": "CC(C)CCNC(=O)Cn1ccc(N2CCOCC2)cc1=O", "endpoint-value": "inactive"}
{"chem-smiles": "O=C(Cn1ccccc1=O)NCc1ccccc1", "endpoint-value": "inactive"}
{"chem-smiles": "CC(C)CCNC(=O)[C@H](C)n1ccc2ncccc2c1=O", "endpoint-value": "inactive"}
{"chem-smiles": "COc1ccc(NC(=O)Cn2ccc(Nc3ccccc3)cc2=O)cc1", "endpoint-value": "inactive"}
